# Organism: Cavia porcellus
# testMethodNotes: Selectivity ratio between CCK-B and CCK-A receptor
# Design: reference not given here
# YES = Selectivity ratio below 100 (exclusive); NO = Selectivity ratio at/above 100

compound | labelClass
Cc1cccc(NC(=O)NC2N=C(c3ccccc3)c3ccccc3N(CC(=O)ON3CCC[C@@H]3C(=O)O)C2=O)c1 (mixture of isomers) | YES
CN1C(=O)C(NC(=O)Nc2ccc(Cl)cc2Cl)N=C(c2ccccc2)c2ccccc21 (racemic) | YES
CCOC(=O)CCN1C(=O)C(NC(=O)Nc2cccc(OC)c2)N=C(c2ccccc2)c2ccccc21 (racemic) | NO
O=C(Nc1ccc(Cl)cc1)NC1N=C(c2ccccc2)c2ccccc2N(CC(=O)N2CCCC2)C1=O (racemic) | NO
CN1C(=O)[C@H](NC(=O)Nc2ccc(Cl)cc2)N=C(c2ccccc2)c2ccccc21 | NO
Cc1cccc(NC(=O)NC2N=C(c3ccccc3)c3cccnc3N(C)C2=O)c1 (racemic) | YES
COc1cccc(NC(=O)NC2N=C(c3ccccc3)c3ccccc3N(C)C2=O)c1 (racemic) | YES
CN1C(=O)C(NC(=O)Nc2ccc(Cl)c(Cl)c2)N=C(c2ccccc2)c2ccccc21 (racemic) | YES
